System: MOLT-4 (T-ALL)
run-description: Alamar Blue cell viability assay, MOLT-4
Type: cell-based
measurement-setup: Homo sapiens, 72 hours
property-label: IC50 (nM)
Respond numerically; units are nM and should not be typed.

Which IC50 is reported for this compound? CCN1C/C(=C\c2cc(OC)c(OC)c(OC)c2)C(=O)/C(=C/c2cc(OC)c(OC)c(OC)c2)C1 [Compound A] 970

* * *

run-description: Mouse pharmacokinetics, intravenous and oral, plasma LC/MSMS
Assay type: in vivo
measurement-setup: mouse, plasma; Mice CD1; oral low dose 10.0 mg/kg vs intravenous; read-out: Bioavailability factor
property-label: bioavailability (%)
Respond numerically; units are % and should not be typed.

Which bioavailability is reported for this molecule? CCN1C/C(=C\c2cc(OC)c(OC)c(OC)c2)C(=O)/C(=C/c2cc(OC)c(OC)c(OC)c2)C1 [Compound A] 48

* * *

run-description: Mouse pharmacokinetics, intravenous and oral, plasma LC/MSMS
Assay type: in vivo
measurement-setup: mouse, plasma; Mice CD1; oral low dose 10.0 mg/kg
property-label: AUC (ng·h/mL)
Respond numerically; units are ng·h/mL and should not be typed.

Which AUC is reported for this compound? "CCN1C/C(=C\c2cc(OC)c(OC)c(OC)c2)C(=O)/C(=C/c2cc(OC)c(OC)c(OC)c2)C1" 321

* * *

run-description: Mouse pharmacokinetics, intravenous and oral, plasma LC/MSMS
Assay type: in vivo
measurement-setup: CD1, mouse, plasma, po, 50.2 mg/kg, Mice CD1; oral high dose 50.2 mg/kg; 0.25 h; individual mice; read-out: Plasma levels
property-label: concentration at 0.25 h (ng/mL)
Respond numerically; units are ng/mL and should not be typed.

Which concentration at 0.25 h is reported for this molecule? "CCN1C/C(=C\c2cc(OC)c(OC)c(OC)c2)C(=O)/C(=C/c2cc(OC)c(OC)c(OC)c2)C1" 819

* * *

run-description: Mouse pharmacokinetics, intravenous and oral, plasma LC/MSMS
Assay type: in vivo
measurement-setup: mouse, plasma; Mice CD1; oral high dose 50.2 mg/kg
property-label: AUC(0-t) (ng·h/mL)
Respond numerically; units are ng·h/mL and should not be typed.

Which AUC(0-t) is reported for this molecule? CCN1C/C(=C\c2cc(OC)c(OC)c(OC)c2)C(=O)/C(=C/c2cc(OC)c(OC)c(OC)c2)C1 [Compound A] 1390

* * *

run-description: Mouse pharmacokinetics, intravenous and oral, plasma LC/MSMS
Format: in vivo
measurement-setup: mouse, plasma; Mice CD1; oral low dose 10.0 mg/kg
property-label: AUC(0-t) (ng·h/mL)
Respond numerically; units are ng·h/mL and should not be typed.

Which AUC(0-t) is reported for this compound? "CCN1C/C(=C\c2cc(OC)c(OC)c(OC)c2)C(=O)/C(=C/c2cc(OC)c(OC)c(OC)c2)C1" 308

* * *

run-description: Mouse pharmacokinetics, intravenous and oral, plasma LC/MSMS
Assay type: in vivo
measurement-setup: CD1, mouse, plasma, iv, 3.83 mg/kg, Mice CD1; intravenous 3.83 mg/kg; 2 h; individual mice; read-out: Plasma levels
property-label: concentration at 2 h (ng/mL)
Respond numerically; units are ng/mL and should not be typed.

Which concentration at 2 h is reported for this molecule? "CCN1C/C(=C\c2cc(OC)c(OC)c(OC)c2)C(=O)/C(=C/c2cc(OC)c(OC)c(OC)c2)C1" 17.9

* * *

run-description: Mouse pharmacokinetics, intravenous and oral, plasma LC/MSMS
Format: in vivo
measurement-setup: mouse, plasma; Mice CD1; intravenous 3.83 mg/kg; read-out: T½ (converted)
property-label: half-life

Which half-life is reported for this molecule? "CCN1C/C(=C\c2cc(OC)c(OC)c(OC)c2)C(=O)/C(=C/c2cc(OC)c(OC)c(OC)c2)C1" 5.5 h

* * *

run-description: Mouse pharmacokinetics, intravenous and oral, plasma LC/MSMS
Assay type: in vivo
measurement-setup: mouse, plasma; Mice CD1; intravenous 3.83 mg/kg; read-out: Total Clearance (converted)
property-label: clearance (mL/min/kg)
Respond numerically; units are mL/min/kg and should not be typed.

Which clearance is reported for this compound? "CCN1C/C(=C\c2cc(OC)c(OC)c(OC)c2)C(=O)/C(=C/c2cc(OC)c(OC)c(OC)c2)C1" 251

* * *

run-description: Mouse pharmacokinetics, intravenous and oral, plasma LC/MSMS
Format: in vivo
measurement-setup: mouse, plasma; Mice CD1; oral low dose 10.0 mg/kg
property-label: Cmax
Please state the number and follow it with the unit.

Which Cmax is reported for this compound? "CCN1C/C(=C\c2cc(OC)c(OC)c(OC)c2)C(=O)/C(=C/c2cc(OC)c(OC)c(OC)c2)C1" 123 ng/mL

* * *

run-description: Mouse pharmacokinetics, intravenous and oral, plasma LC/MSMS
Assay type: in vivo
measurement-setup: CD1, mouse, plasma, iv, 3.83 mg/kg, Mice CD1; intravenous 3.83 mg/kg; 0.083 h; individual mice; read-out: Plasma levels
property-label: concentration at 0.083 h

Which concentration at 0.083 h is reported for this compound? "CCN1C/C(=C\c2cc(OC)c(OC)c(OC)c2)C(=O)/C(=C/c2cc(OC)c(OC)c(OC)c2)C1" 200 ng/mL

* * *

run-description: Mouse pharmacokinetics, intravenous and oral, plasma LC/MSMS
Format: in vivo
measurement-setup: mouse, plasma; Mice CD1; oral high dose 50.2 mg/kg
property-label: Tmax

Which Tmax is reported for this compound? "CCN1C/C(=C\c2cc(OC)c(OC)c(OC)c2)C(=O)/C(=C/c2cc(OC)c(OC)c(OC)c2)C1" 15 min

* * *

Test system: OCI-AML2 (AML)
run-description: Alamar Blue cell viability assay, OCI-AML2
Type: cell-based
measurement-setup: Homo sapiens, 72 hours
property-label: IC50 (nM)
Respond numerically; units are nM and should not be typed.

Which IC50 is reported for this molecule? CCN1C/C(=C\c2cc(OC)c(OC)c(OC)c2)C(=O)/C(=C/c2cc(OC)c(OC)c(OC)c2)C1 [Compound A] 1030

* * *

run-description: Mouse pharmacokinetics, intravenous and oral, plasma LC/MSMS
Assay type: in vivo
measurement-setup: CD1, mouse, plasma, po, 50.2 mg/kg, Mice CD1; oral high dose 50.2 mg/kg; 3 h; individual mice; read-out: Plasma levels
property-label: concentration at 3 h

Which concentration at 3 h is reported for this compound? "CCN1C/C(=C\c2cc(OC)c(OC)c(OC)c2)C(=O)/C(=C/c2cc(OC)c(OC)c(OC)c2)C1" 137 ng/mL

* * *

Test system: CCRF-CEM (T-ALL)
run-description: Alamar Blue cell viability assay, CCRF-CEM
Type: cell-based
measurement-setup: Homo sapiens, 72 hours
property-label: pIC50
By convention, pIC50 is the negative base-10 log of a molar concentration.

Which pIC50 is reported for this compound? "CCN1C/C(=C\c2cc(OC)c(OC)c(OC)c2)C(=O)/C(=C/c2cc(OC)c(OC)c(OC)c2)C1" 5.93

* * *

run-description: Mouse pharmacokinetics, intravenous and oral, plasma LC/MSMS
Type: in vivo
measurement-setup: mouse, plasma; Mice CD1; intravenous 3.83 mg/kg
Procedure: Compound A (Stored at ca. +5° C.) Formulation preparation for oral routes: […] Animal Phase: • Species: Mice CD1 (supplied from Harlan, France) • Routes tested: Intravenous (Mice Nos.39 to 52 incl.), oral low dose (Mice Nos.53 to 63 incl.) and oral high dose (Mice Nos.65 to 76 incl.) • Animals were not fasted. […]
property-label: Vd (L/kg)
Respond numerically; units are L/kg and should not be typed.

Which Vd is reported for this compound? "CCN1C/C(=C\c2cc(OC)c(OC)c(OC)c2)C(=O)/C(=C/c2cc(OC)c(OC)c(OC)c2)C1" 119

* * *

run-description: Mouse pharmacokinetics, intravenous and oral, plasma LC/MSMS
Assay type: in vivo
measurement-setup: mouse, plasma; Mice CD1; oral low dose 10.0 mg/kg
Description: Compound A (Stored at ca. +5° C.) Formulation preparation for oral routes: […] Animal Phase: • Species: Mice CD1 (supplied from Harlan, France) • Routes tested: Intravenous (Mice Nos.39 to 52 incl.), oral low dose (Mice Nos.53 to 63 incl.) and oral high dose (Mice Nos.65 to 76 incl.) • Animals were not fasted. […]
property-label: Tmax (min)
Respond numerically; units are min and should not be typed.

Which Tmax is reported for this molecule? CCN1C/C(=C\c2cc(OC)c(OC)c(OC)c2)C(=O)/C(=C/c2cc(OC)c(OC)c(OC)c2)C1 [Compound A] 15

* * *

Test system: KASUMI-1 (AML)
run-description: Alamar Blue cell viability assay, KASUMI-1
Assay type: cell-based
measurement-setup: Homo sapiens, 72 hours
property-label: pIC50
By convention, pIC50 is the negative base-10 log of a molar concentration.

Which pIC50 is reported for this molecule? "CCN1C/C(=C\c2cc(OC)c(OC)c(OC)c2)C(=O)/C(=C/c2cc(OC)c(OC)c(OC)c2)C1" 6.25
